Biological target: T1, FLAG-Tagged hAng2 (human, UniProt O15123 19-496, limits assumed)
T1 construct: also called FLAG-Ang2; non-mutated Ang2
T1 sequence: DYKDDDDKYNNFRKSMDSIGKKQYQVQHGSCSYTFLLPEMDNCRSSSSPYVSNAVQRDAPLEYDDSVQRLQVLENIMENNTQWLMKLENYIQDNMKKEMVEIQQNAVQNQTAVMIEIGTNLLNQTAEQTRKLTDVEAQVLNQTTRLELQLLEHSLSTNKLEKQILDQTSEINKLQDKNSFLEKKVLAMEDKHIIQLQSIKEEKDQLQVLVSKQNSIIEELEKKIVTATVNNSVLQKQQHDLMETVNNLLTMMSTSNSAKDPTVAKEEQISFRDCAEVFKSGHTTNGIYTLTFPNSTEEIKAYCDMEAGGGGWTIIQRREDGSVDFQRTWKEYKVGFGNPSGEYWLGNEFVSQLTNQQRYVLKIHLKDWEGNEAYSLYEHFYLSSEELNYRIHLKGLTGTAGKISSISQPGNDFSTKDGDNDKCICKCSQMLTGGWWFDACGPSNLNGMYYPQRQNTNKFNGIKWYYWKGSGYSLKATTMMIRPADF
Test: competitive ELISA: hTie2-Fc coated, 400 ng/ml FLAG-hAng2 plus IgG, anti-FLAG-HRP

>  <BINDER>
SAIT-ANG-2-AB-8-A5 (IgG form) (antibody, V domains shown, Intact human antibody with human IgG1 constant region) VH: EVQLLESGGGLVQPGGSLRLSCAASGFTFSDYYMSWVRQAPGKGLEWVSGIYPSGGSTYYADSVKGRFTISRDNSKNTLYLQMNSLRAEDTAVYYCARDPSTLTYAGFDYWGQGTLVTVSS VL: QSVLTQPPSASGTPGQRVTISCSGSSSNIGNNYVTWYQQLPGTAPKLLIYADSHRPSGVPDRFSGSKSGTSASLAISGLRSEDEADYYCATWDYSLSGYVFGGGTKLTVLG

>  <IC50, nM>
0.341

$$$$
>  <BINDER>
SAIT-ANG-2-AB-3-D3 (IgG form) (antibody, V domains shown, Intact human antibody with human IgG1 constant region) VH: EVQLLESGGGLVQPGGSLRLSCAASGFTFSDYDMSWVRQAPGKGLEWVSGISSDDGNTYYADSVKGRFTISRDNSKNTLYLQMNSLRAEDTAVYYCARPTIDKYTLRGYYSYGMDVWGQGTLVTVSS VL: QSVLTQPPSASGTPGQRVTISCTGSSSNIGSNYVSWYQQLPGTAPKLLIYSDNKRPSGVPDRFSGSKSGTSASLAISGLRSEDEADYYCGTWDDSLNGYVFGGGTKLTVLG

>  <IC50, nM>
0.44

$$$$
>  <BINDER>
SAIT-ANG-2-AB-2-E6 (IgG form) (antibody, V domains shown, Intact human antibody: VH cloned into a vector with the constant region and Fc region of human IgG1, VL into pFUSE2-CLIg-hl2 (light chain constant region)) VH: EVQLLESGGGLVQTGGSLRLSCAASGFTFSDYAMSWVRQAPGKGLEWVSAIYPDSGNKYYADSVKGRFTISRDNSKNTLYLQMNSLRAEDTAVYYCARHSSDPKVKSGYYDDGMDVWGQGTLVAVSS VL: QSVLTQPPSASGTPGQRVTISCSGSSSNIGNNAVNWYQQLPGTAPKLLIYADSNRPSGVPDRFSGSKSGTSASLAISGLRSEDEADYYCGSWDYSLSGYVFGGGTKLTVLG

>  <IC50, nM>
0.605

$$$$
